- MEASURED_ON: Chromo domain-containing protein 1 (Saccharomyces cerevisiae (strain ATCC 204508 / S288c) (Baker's yeast)) (UniProt P32657)
- Sequence (P32657 whole entry, the tested form may be a part): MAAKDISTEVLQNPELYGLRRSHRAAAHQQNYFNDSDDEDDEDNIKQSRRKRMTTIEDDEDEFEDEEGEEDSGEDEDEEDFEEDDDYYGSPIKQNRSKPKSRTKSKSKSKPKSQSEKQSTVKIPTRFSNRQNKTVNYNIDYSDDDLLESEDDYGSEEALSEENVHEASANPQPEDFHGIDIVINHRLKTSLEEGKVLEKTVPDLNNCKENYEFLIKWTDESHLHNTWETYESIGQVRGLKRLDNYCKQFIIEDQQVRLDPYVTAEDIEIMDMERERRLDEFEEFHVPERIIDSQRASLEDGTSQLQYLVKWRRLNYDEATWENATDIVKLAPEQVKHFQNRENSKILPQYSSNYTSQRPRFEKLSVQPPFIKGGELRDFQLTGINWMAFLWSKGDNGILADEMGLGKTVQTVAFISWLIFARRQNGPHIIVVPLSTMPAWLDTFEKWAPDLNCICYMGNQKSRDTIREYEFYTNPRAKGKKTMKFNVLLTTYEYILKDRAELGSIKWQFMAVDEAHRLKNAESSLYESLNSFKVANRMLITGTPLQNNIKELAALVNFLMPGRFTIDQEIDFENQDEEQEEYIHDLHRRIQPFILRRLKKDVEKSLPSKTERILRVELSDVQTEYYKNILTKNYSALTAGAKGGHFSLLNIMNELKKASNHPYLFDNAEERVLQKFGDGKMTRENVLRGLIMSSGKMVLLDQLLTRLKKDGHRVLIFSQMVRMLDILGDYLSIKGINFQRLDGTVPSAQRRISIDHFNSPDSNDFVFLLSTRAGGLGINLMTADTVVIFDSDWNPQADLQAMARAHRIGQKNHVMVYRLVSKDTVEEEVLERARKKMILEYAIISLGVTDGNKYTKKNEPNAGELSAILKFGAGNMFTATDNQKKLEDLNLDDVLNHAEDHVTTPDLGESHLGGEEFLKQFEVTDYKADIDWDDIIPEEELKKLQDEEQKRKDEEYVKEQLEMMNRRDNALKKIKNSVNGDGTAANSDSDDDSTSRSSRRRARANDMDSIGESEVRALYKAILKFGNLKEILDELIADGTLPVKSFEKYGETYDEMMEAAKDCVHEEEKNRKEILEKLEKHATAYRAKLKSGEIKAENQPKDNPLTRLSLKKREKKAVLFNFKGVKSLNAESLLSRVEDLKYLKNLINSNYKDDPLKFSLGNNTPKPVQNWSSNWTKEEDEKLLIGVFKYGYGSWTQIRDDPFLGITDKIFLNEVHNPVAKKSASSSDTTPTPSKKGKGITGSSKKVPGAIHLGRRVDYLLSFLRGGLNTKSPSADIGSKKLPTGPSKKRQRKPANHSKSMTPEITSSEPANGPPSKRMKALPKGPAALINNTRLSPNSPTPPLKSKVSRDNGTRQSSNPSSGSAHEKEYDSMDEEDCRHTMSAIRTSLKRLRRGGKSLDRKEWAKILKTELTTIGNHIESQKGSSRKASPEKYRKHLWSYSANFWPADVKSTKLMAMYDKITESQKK
- PROTOCOL_DESCRIPTION: ScCHD-1 Enzyme Inhibition Assay; note: in the data most compounds retested in dose-response had high values
- Format: functional
- Parameters: scale not given: direction of the effect not stated beside the values
- CONDITIONS: 30 µM
# Lookup of reported Percent Effect keyed by entry
All answers are understood in %, so give the number only.

Some solved entries appear below for comparison.
COMPOUND | REPORTED_PROPERTY | DATA_VALUE
Cc1ccc(OCC(=O)NCc2ccccc2F)nc1 | Percent Effect | -4.08
CCn1cc(CN(C)S(=O)(=O)c2ccc(NC(C)=O)cc2)cn1 | Percent Effect | -7.39
CC(C)(C)SCCCC(=O)N1CCC(Nc2cccnn2)CC1 | Percent Effect | 0.803
Cc1noc2nc(C3CCN(CC4=CCCOC4)CC3)cc(C(F)F)c12 | Percent Effect | -11.7

Ask: Which Percent Effect value belongs to COc1ccc(NC(=O)CNc2ccc(Br)cc2F)cc1 ?
Reply: -4.78

Ask: Proceed to Cc1cc(CN2CCN(C(=O)C(C)C)[C@@H]3CS(=O)(=O)C[C@@H]32)ccc1F
Reply: -2.86

Ask: Proceed to CNC(=O)[C@@]12CCCN(c3ncccn3)[C@@H]1CN(C(=O)NC(C)C)C2
Reply: -12.4

Ask: Proceed to COc1ccc(C2SC(C)=Nc3c2c(=O)[nH]n3C2CCCCC2)cc1O (configuration not stated)
Reply: -12.8

Ask: Proceed to CC(C)(C)c1nc(CN2CCCC(Cn3cncn3)C2)cs1 (configuration not stated)
Reply: -8.38

Ask: Proceed to CN(CCc1ccccc1)Cc1cc(C(=O)N2CCCC2(C)C)no1
Reply: -0.0446

Ask: Proceed to CC(C)c1nnc2n1CCN(C(=O)c1ccc(-n3cnnc3)cc1)C2
Reply: -23.7

Ask: Proceed to Cc1cc(C)n(C2CCCN(C(=O)c3ccc(NC4CC4)nc3)C2)n1 (configuration not stated)
Reply: -13.5

Ask: Proceed to CCN1CCOC(CNCc2ccccn2)C1 (configuration not stated)
Reply: -1.88

Ask: Proceed to CCc1noc(C(C)N2CCN(Cc3ncc(C(C)(C)C)o3)CC2)n1 (configuration not stated)
Reply: -10.7

Ask: Proceed to CC(=O)N1CCCC1C(=O)NCCOc1cc(C)cc(C)c1 (configuration not stated)
Reply: -4.02

Ask: Proceed to CCc1ccc(CN2CC[C@H]3C[C@H](c4nnc(C)[nH]4)O[C@@H]3C2)o1
Reply: -3.68

Ask: Proceed to O=C(C(CNCc1ccsc1)c1ccccc1)N1CCOCC1 (configuration not stated)
Reply: 1.41

Ask: Proceed to Cc1ccc(NC2CCN(C(=O)c3ccsc3)CC2)nn1
Reply: -2

Ask: Proceed to Cc1cc(C)c2c(c1)C1(CC(=O)Nc3c1cnn3C(C)C)C(=O)N2 (configuration not stated)
Reply: -5.39

---

# Lookup of reported Percent Effect keyed by entry
- MEASURED_ON: Protein translocase subunit SecA (Escherichia coli (strain K12))
- PROTOCOL_DESCRIPTION: Assay to Identify E. coli SecA ATPase Inhibitors
- Format: functional
- Design: scale not given: direction of the effect not stated beside the values
- CONDITIONS: 30 µM
Measured potencies and affinities stand elsewhere.
All answers are understood in %, so give the number only.

Some solved entries appear below for comparison.
COMPOUND | Percent Effect, %
COc1cc(CNC(=O)NCc2c(C)cc(C)[nH]c2=O)ccc1C | -6.17
COc1cccc(OCC(=O)NS(=O)(=O)c2ccc(C)s2)c1 | -3.05
Cc1nonc1CN(C)CC1(O)CCCN(CCC2CCCCC2)C1=O (configuration not stated) | 2.32
COc1cccc(COCC(=O)N2CCC(CC(N)=O)CC2)c1 | -3.54
COc1ccccc1N1CCC(CNCc2cccc(O)c2)C1 (configuration not stated) | -2.9
COc1cccc(Cc2nnc(SC3CCOC3=O)o2)c1 (configuration not stated) | -4.53
COCCc1noc(CNC2CCCN(c3cccnn3)C2)n1 (configuration not stated) | -5.96
N#Cc1ccnc(N2CCN(Cc3cccc(F)c3)CC2)c1 | -3.54

Ask: Which Percent Effect value belongs to CC(C)NC(=O)N1CCN(S(=O)(=O)C2CC2)CC2(CNC(=O)C2)C1 (configuration not stated) ?
Reply: -6.38

Ask: Proceed to CS(=O)(=O)NC1CCCN(C(=O)NCc2cccnc2)C1 (configuration not stated)
Reply: -2.71

Ask: Proceed to COC(=O)c1ccc(N2CCN(C(=O)c3cc(C)on3)C(C)C2)cc1 (configuration not stated)
Reply: -1.64

Ask: Proceed to Cc1ccc(Cc2cnc(NC(=O)C3CNC(=O)N3)s2)cc1F (configuration not stated)
Reply: -2.83

Ask: Proceed to Cc1nc(C)n(CC2CCCN2CCc2cccs2)n1 (configuration not stated)
Reply: -2.28

Ask: Proceed to Cc1cc(C)n(C2CCCN(C(=O)CCNS(C)(=O)=O)C2)n1 (configuration not stated)
Reply: 2.69

Ask: Proceed to COCCOCC(=O)Nc1ccc(C)cc1F
Reply: -1.36

Ask: Proceed to Nc1nc(C2CCN(C(=O)c3cscn3)CC2)cs1
Reply: -2.59

Ask: Proceed to O=C(Nc1cn[nH]c1)c1ccc(O)nc1
Reply: -0.619

---

- MEASURED_ON: Tyrosyl-tRNA synthetase, putative (Trypanosoma cruzi (strain CL Brener))
- Sequence (whole entry): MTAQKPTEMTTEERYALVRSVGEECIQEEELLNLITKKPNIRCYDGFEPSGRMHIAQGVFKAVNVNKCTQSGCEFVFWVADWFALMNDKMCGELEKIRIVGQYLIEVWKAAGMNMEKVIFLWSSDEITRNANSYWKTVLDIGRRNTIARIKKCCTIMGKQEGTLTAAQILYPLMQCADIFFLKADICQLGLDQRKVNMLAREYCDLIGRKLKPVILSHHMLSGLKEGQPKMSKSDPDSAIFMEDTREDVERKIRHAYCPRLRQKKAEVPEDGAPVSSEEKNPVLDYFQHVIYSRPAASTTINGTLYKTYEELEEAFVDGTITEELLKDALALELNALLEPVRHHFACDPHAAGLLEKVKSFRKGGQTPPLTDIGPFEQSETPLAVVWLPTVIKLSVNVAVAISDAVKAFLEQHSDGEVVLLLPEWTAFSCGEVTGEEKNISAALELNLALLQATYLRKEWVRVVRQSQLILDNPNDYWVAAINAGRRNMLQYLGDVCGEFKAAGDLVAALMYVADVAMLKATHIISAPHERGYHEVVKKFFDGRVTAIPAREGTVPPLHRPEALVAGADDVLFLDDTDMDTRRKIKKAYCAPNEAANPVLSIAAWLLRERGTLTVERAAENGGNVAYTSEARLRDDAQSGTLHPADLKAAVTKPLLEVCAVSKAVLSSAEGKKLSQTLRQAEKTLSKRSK
- PROTOCOL_DESCRIPTION: Trypanosoma cruzi tyrosyl tRNA synthetase (TcYRS) SOP
- Format: functional
- Design: scale not given: direction of the effect not stated beside the values
- CONDITIONS: 30 µM
REPORTED_PROPERTY: Percent Effect (%)
All answers are understood in %, so give the number only.

COMPOUND | Percent Effect, %
Cc1cnn(C2CCCN(C(=O)c3cccc(Cn4ccnc4)c3)C2)c1 (configuration not stated) | 10.1
Cc1cnn(CCNCc2csc(C)n2)c1 | 6.17
CC1CN(C(=O)CN(Cc2ccccc2Br)C2CC2)CCO1 (configuration not stated) | 7.06
CN(Cc1cn2c(n1)CN(C1CCOC1)CC2)Cc1ccco1 (configuration not stated) | 20
Cc1nc(N2CCCC2)ncc1-c1cc(O)nc(N2CCCC2)n1 | 0
O=C(Cn1ccc2c(Cl)cccc21)N[C@@H](C(=O)O)c1ccccc1 | -2.56

Ask: Param readout= Percent Effect; system= Tyrosyl-tRNA synthetase, putative (Trypanosoma cruzi (strain CL Brener)); entry= O=C(NC1CC1)[C@@H]1CCO[C@@H]2CCN(Cc3ccsc3)C[C@H]21 ; returns value.
Reply: 0

Ask: Proceed to O=c1nc(CNc2ccccc2)[nH]n1Cc1ccccc1
Reply: 13

Ask: Proceed to Cc1nc(C)n(C2CCCN(C(=O)c3csnn3)C2)n1 (configuration not stated)
Reply: 18.5

---

# Lookup of reported Percent Effect keyed by entry
- Test system: Trypanosoma cruzi
- PROTOCOL_DESCRIPTION: Trypanosoma cruzi phosphomannomutase and mannose-1-phosphate guanylyltransferase assay
- Assay type: functional
- Design: scale not given: direction of the effect not stated beside the values
- CONDITIONS: 10 µM
All answers are understood in %, so give the number only.

Some solved entries appear below for comparison.
MOLECULE | UNIT_DESCRIPTOR | DATA_VALUE
O=c1ccc2c(n1CCN1CCCC1)CCN(Cc1ccoc1)CC2 | % | 7.94
Cc1cc(C)n(CC2CN(CCOc3cccc(F)c3)CCO2)n1 (stereo not drawn) | % | 1.59

Ask: Which Percent Effect value belongs to O=C(NCC(O)c1ccc(F)c(F)c1)c1cccnc1O (stereo not drawn) ?
Reply: -0.198
